Attribution: paper PMC4336329

target: human ether-à-go-go-related gene (hERG) potassium channel (human, UniProt Q12809); test: primary screen, population patch clamp on CHO cells stably expressing hERG; higher = less effect of the substance;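 also: peak tail current of the secondary pulse compared with the same well before compound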
Sequence (Q12809 whole entry, looked up): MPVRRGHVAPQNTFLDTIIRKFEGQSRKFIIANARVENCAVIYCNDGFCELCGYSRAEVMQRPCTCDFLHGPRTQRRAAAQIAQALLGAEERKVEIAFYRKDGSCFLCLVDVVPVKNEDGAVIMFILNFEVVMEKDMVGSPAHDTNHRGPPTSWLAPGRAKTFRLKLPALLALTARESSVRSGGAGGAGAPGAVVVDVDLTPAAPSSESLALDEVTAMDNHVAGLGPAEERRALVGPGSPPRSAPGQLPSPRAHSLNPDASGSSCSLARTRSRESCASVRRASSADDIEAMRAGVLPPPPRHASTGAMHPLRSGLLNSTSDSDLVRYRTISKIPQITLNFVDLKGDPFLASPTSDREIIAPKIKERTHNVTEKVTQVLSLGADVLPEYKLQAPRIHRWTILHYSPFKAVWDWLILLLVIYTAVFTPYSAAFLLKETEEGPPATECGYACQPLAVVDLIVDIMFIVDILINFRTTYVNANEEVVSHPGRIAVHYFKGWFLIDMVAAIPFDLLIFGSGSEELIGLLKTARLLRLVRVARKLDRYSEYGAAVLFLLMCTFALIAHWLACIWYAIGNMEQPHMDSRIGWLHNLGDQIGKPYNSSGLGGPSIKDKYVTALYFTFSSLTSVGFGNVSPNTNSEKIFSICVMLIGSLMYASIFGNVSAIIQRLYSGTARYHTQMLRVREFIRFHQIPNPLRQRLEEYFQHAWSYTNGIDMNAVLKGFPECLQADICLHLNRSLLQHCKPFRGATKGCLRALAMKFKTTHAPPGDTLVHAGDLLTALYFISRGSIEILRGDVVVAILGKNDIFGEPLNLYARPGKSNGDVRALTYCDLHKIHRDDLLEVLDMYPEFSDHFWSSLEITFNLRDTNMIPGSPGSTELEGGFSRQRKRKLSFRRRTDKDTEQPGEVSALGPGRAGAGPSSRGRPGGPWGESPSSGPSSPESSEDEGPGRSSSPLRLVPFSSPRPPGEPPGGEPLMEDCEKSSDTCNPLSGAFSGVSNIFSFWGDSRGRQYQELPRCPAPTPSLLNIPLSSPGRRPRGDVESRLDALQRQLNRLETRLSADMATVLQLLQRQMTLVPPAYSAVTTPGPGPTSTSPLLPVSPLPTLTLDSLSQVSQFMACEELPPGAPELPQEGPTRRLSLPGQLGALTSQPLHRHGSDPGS
The whole screen tested about 310,000 compounds, of which about 14,000 (4.5%) showed an effect of 50% or more. The effect is printed as a negative number. The list comes from a sample in which strong results are over-represented; it also holds close analogues and randomly drawn compounds.
Would you please tag the item Condition met when its hERG current change (%, negative = inhibition) at 10uM is -10% or above, and Condition not met when it is below?

[
  {
    "compound": "COc1ccc(-n2cccc2/C=C/[N+](=O)[O-])cc1",
    "category-label": "Condition not met"
  },
  {
    "compound": "COc1cccc(-n2c(C)c3c(OC)cccc(=O)c3c2C)c1",
    "category-label": "Condition not met"
  },
  {
    "compound": "CCc1cccc(NC(=O)C2CC2c2ccccc2)c1 (stereo not drawn)",
    "category-label": "Condition met"
  },
  {
    "compound": "CC1Cc2cc(S(=O)(=O)N3CCCC(C(=O)N4CCCCC4)C3)ccc2N1C(=O)C1CC1 (stereo not drawn)",
    "category-label": "Condition met"
  },
  {
    "compound": "CN(Cc1ccccc1)S(=O)(=O)c1ccc(OCC(=O)N2CCC(C(N)=O)CC2)cc1",
    "category-label": "Condition met"
  }
]

Input line: # check: hERG current change (%, negative = inhibition) at 10uM of N#C/C(=N\Nc1ccc([N+](=O)[O-])cc1)C(N)=S is greater than or equal to -10%
Output line: Condition met

Input line: Could you tell me if the measured hERG current change (%, negative = inhibition) at 10uM of CC(C)C[C@H](NC(=O)c1nc[nH]c1C(=O)NC1CCN(C(=O)OC(C)(C)C)CC1)C(=O)OC(C)(C)C reaches -10% or more?
Output line: Condition not met

Input line: Hello, I need to know if Cc1ccccc1NC(=O)Cn1nc(C(F)(F)F)cc1C1CC1 has measured hERG current change (%, negative = inhibition) at 10uM not below -10%. Thanks!
Output line: Condition met

Input line: Entry C/C(=N\Nc1ccc([N+](=O)[O-])cc1)c1ccc(N2CCOCC2)cc1 : is its hERG current change (%, negative = inhibition) at 10uM no less than -10%?
Output line: Condition met

Input line: Item Cc1ccc(S(=O)(=O)NCc2ccc(C(=O)NCCN(Cc3ccccc3)C(C)C)cc2)cc1 with hERG current change (%, negative = inhibition) at 10uM of -10% or above?
Output line: Condition not met

Input line: Please indicate if the recorded hERG current change (%, negative = inhibition) at 10uM for CC(C)c1nnc(NC(=O)CCC(=O)NC2CCCCC2)s1 meets or exceeds -10%.
Output line: Condition met

Input line: Determine whether this compound has hERG current change (%, negative = inhibition) at 10uM no lower than -10%: COc1ccc(C(=O)OCC(=O)Nc2c(C)cccc2C)cc1
Output line: Condition met

Input line: Could you tell me if the measured hERG current change (%, negative = inhibition) at 10uM of N#C/C(=N\Nc1ccc(Br)cc1)C(=N)N1CCOCC1 reaches -10% or more?
Output line: Condition not met
